Provenance of the data: PubChem BioAssay (NCATS)

The entries below come with measured max response values attached.
# Tested on: HaCat
# method description: Cytotoxic Profiling of Annotated Libraries Using Quantitative High-Throughput Screening (AID 1296008); also: % is scaled to controls: 0 for no effect and ±100 for the full control effect; nearly all actives have a fitted effect of over 60% in size
# assay setup: Five cell lines viability, CellTiter-Glo ATP luminescence, 48-72 h; hits give low values
# Description: Cell-based phenotypic screening is a commonly used approach to discover biological pathways, novel drug targets, chemical probes and high-quality hit-to-lead molecules. […] A pintool (Kalypsys) was used to transfer 23 nL of compound solution to the 1536-well assay plates. […] Plates were left at room temperature for 10 min before imaging the ATP-coupled luminescence using a ViewLux microplate imager (PerkinElmer, Waltham, MA).
Records with an inconclusive call do not appear.
Give your result in % as a bare value.

compound="C/C=C/C(O)C1OC(=O)CC1Nc1ccc(C(=O)O)cc1 (stereo not given)" property_measured="max response" measurement_unit=% value_reported=-8.27

Quick one: give measured max response for CC(C)=CCC/C(C)=C/CCC1(C)Oc2c(c(O)cc3c2CN(C(CCC(=O)O)C(=O)O)C3=O)CC1O (stereo not given)
-10.3

Given the compound C[C@@H]([C@@H](O)c1ccc(O)cc1)N1CCC(O)(c2ccccc2)CC1 , write its reported max response.
-0.788

Tell me measured max response for C=C1C[C@]23C[C@H]1CC[C@H]2C1=C[C@H]2OC(=O)[C@@](C)([C@H]1[C@@H]3C(=O)O)[C@H]2O please.
1.41

State its max response for this compound: CC(C)(O)/C=C/CC(C)(O)C1C(O)CC2(C)C3CCC4C(C)(C)C(=O)CCC4(C)C3CCC12C (stereo not given)
-10.7
